Recorded values, source ChEMBL document CHEMBL1157439.

System: Cannabinoid receptor 2 (Homo sapiens, UniProt P34972)
Sequence (P34972 whole entry): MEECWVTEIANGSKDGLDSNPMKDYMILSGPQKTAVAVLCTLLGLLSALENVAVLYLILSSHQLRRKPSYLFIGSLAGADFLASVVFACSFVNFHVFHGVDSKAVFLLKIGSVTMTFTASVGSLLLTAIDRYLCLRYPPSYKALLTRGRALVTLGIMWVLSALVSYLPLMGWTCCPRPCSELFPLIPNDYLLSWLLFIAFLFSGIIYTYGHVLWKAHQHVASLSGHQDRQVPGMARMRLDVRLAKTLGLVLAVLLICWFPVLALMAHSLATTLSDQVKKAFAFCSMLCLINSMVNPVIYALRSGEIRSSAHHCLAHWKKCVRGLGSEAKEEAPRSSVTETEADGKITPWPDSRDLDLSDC
Protocol: Agonist activity at cloned human CB2 receptor in Sf9 cells assessed by [35S]GTPgammaS binding assay relative to delta9-THC
Type: functional
Reported Endpoint: Emax

// returns Emax for `CCCN(C)C(=O)c1ccc2c(c1)nc(Cc1ccc(OCC)cc1)n2CC1CC1` with Cannabinoid receptor 2 (Homo sapiens, UniProt P34972); value = 54%

// returns Emax for `CCOc1ccc(Cc2nc3cc(C(=O)N(CC)CC)ccc3n2CC2CCC2)cc1` with Cannabinoid receptor 2 (Homo sapiens, UniProt P34972); value = 64%

// returns Emax for `CCOc1ccc(Cc2nc3cc(C(=O)N(CC)CC)ccc3n2CC2CC2)nc1` with Cannabinoid receptor 2 (Homo sapiens, UniProt P34972); value = 63%

// returns Emax for `CCN(CC)C(=O)c1ccc2c(c1)nc(Cc1ccc(OC3CCCC3)cc1)n2CCC(C)C` with Cannabinoid receptor 2 (Homo sapiens, UniProt P34972); value = 83%

// returns Emax for `CCOc1ccc(Cc2nc3cc(C(=O)N(CC)CC)ccc3n2Cc2ccccc2)cc1` with Cannabinoid receptor 2 (Homo sapiens, UniProt P34972); value = 88%

// returns Emax for `CCN(CC)C(=O)c1ccc2c(c1)nc(Cc1ccc(OC3CCC3)cc1)n2CCC(C)C` with Cannabinoid receptor 2 (Homo sapiens, UniProt P34972); value = 73%

// returns Emax for `CCOc1ccc(Cc2nc3cc(N(C)C(=O)c4cccs4)ccc3n2CC2CC2)cc1` with Cannabinoid receptor 2 (Homo sapiens, UniProt P34972); value = 51%

// returns Emax for `CCN(CC)C(=O)c1ccc2c(c1)nc(Cc1ccc(OC(C)C)cc1)n2CCC(C)C` with Cannabinoid receptor 2 (Homo sapiens, UniProt P34972); value = 79%

// returns Emax for `CCOc1ccc(Cc2nc3cc(N(C)C(=O)N(CC)CC)ccc3n2CC2CC2)cc1` with Cannabinoid receptor 2 (Homo sapiens, UniProt P34972); value = 48%

// returns Emax for `CCN(CC)C(=O)c1ccc2c(c1)nc(Cc1ccc(OCC(F)(F)F)cc1)n2CCC(C)C` with Cannabinoid receptor 2 (Homo sapiens, UniProt P34972); value = 68%

// returns Emax for `CCOc1ccc(Cc2nc3cc(C(=O)N(CC)CC)ccc3n2C[C@H]2CCCO2)cc1` with Cannabinoid receptor 2 (Homo sapiens, UniProt P34972); value = 62%

// returns Emax for `CCOc1ccc(Cc2nc3cc(C(=O)N(CC)CC)ccc3n2Cc2ccccn2)cc1` with Cannabinoid receptor 2 (Homo sapiens, UniProt P34972); value = 77%

// returns Emax for `CCN(CC)C(=O)c1ccc2c(c1)nc(Cc1ccc(OC)cc1)n2CCC(C)C` with Cannabinoid receptor 2 (Homo sapiens, UniProt P34972); value = 43%

// returns Emax for `CCOc1ccc(Cc2nc3cc(C(=O)N4CCCC4)ccc3n2CC2CC2)cc1` with Cannabinoid receptor 2 (Homo sapiens, UniProt P34972); value = 51%

// returns Emax for `CCOc1ccc(Cc2nc3cc(C(=O)N(CC)CC)ccc3n2CC2CC2)cc1` with Cannabinoid receptor 2 (Homo sapiens, UniProt P34972); value = 68%

// returns Emax for `CCN(CC)C(=O)c1ccc2c(c1)nc(Cc1ccc(OCC3CC3)cc1)n2CCC(C)C` with Cannabinoid receptor 2 (Homo sapiens, UniProt P34972); value = 75%

// returns Emax for `CCCN(CCC)C(=O)c1ccc2c(c1)nc(Cc1ccc(OCC)cc1)n2CC1CC1` with Cannabinoid receptor 2 (Homo sapiens, UniProt P34972); value = 67%

// returns Emax for `CCOc1ccc(Cc2nc3cc(C(=O)N(CC)CC)ccc3n2CC2CCCCC2)cc1` with Cannabinoid receptor 2 (Homo sapiens, UniProt P34972); value = 79%

// returns Emax for `CCNC(=O)c1ccc2c(c1)nc(Cc1ccc(OCC)cc1)n2CC1CC1` with Cannabinoid receptor 2 (Homo sapiens, UniProt P34972); value = 53%

// returns Emax for `CCOc1ccc(Cc2nc3cc(C(=O)N(CC)CC)ccc3n2CC2CCOCC2)cc1` with Cannabinoid receptor 2 (Homo sapiens, UniProt P34972); value = 89%
